tgt: T1, macaca fascicularis (mf) PRLR.mmh (soluble monomeric monkey PRLR) (Macaca fascicularis)
T1 construct: called soluble monomeric PRLR protein
T1 chain: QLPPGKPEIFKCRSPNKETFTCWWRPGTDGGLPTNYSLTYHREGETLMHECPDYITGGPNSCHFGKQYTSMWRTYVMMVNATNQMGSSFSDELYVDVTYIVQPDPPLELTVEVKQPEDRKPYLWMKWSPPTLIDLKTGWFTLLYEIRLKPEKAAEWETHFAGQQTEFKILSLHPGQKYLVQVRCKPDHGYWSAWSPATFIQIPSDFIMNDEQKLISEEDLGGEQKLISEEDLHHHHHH
assay-overview: SPR Biacore, 25 C, mAb capture
test-readout: kon (M⁻¹ s⁻¹)
Kindly provide the numeric value in M⁻¹ s⁻¹ only, without the unit symbol.

GET /value?item= H1H6795P (antibody, human IgG1, V domains shown, Human IgG1 Fc (H1H)) VH: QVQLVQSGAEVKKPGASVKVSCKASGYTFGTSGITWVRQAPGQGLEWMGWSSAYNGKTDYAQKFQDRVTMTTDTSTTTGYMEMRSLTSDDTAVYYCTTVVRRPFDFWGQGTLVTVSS VL: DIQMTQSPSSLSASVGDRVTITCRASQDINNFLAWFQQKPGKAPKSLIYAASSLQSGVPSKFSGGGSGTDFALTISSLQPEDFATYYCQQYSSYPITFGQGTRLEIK &field=kon returns 844000

Lab note: measured kon of H1H6959N2 (antibody, human IgG1, V domains shown, Tested with human IgG1 Fc (H1H); also called H2M6959N2) VH: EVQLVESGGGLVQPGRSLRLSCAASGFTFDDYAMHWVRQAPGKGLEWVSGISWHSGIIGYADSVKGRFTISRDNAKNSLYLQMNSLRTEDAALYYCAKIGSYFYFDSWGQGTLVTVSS VL: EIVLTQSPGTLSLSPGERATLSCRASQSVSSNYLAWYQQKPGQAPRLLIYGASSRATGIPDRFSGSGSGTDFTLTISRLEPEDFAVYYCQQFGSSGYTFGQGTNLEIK was 129000

response.value for H1H6762P (antibody, human IgG1, V domains shown, Human IgG1 Fc (H1H)) VH: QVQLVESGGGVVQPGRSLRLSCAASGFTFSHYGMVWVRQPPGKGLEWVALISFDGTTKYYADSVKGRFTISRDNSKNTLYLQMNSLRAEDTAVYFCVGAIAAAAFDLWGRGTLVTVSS VL: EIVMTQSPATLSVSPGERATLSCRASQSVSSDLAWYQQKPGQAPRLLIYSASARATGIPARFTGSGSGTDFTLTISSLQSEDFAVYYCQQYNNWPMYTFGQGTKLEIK (field: kon) = 408000
